Tested on: Fibroblast
measurementProtocol: Multiplex assay against human fibroblast
Assay type: toxicity, cell-based
experimentalContext: 12 h, 1 µM, compound concentration 1 uM, replicate 2
measuredMetric: Population Mitotic Cells (%)
// return numeric value only (unit: %, not printed)

Example entries begin here.
[[record]]
compound = "CC(/C=C1\\SC(=S)N(CCCC(=O)Nc2ccc(C(=O)O)c(O)c2)C1=O)=C\\c1ccccc1"
measuredmetric = "Population Mitotic Cells (%)"
unitssymbol = "%"
assayvalue = 66

[[record]]
compound = "C[C@@H](Oc1cc(-n2cnc3ccc(CN4CCN(C)CC4)cc32)sc1C(N)=O)c1ccccc1C(F)(F)F [GSK-461364]"
measuredmetric = "Population Mitotic Cells (%)"
unitssymbol = "%"
assayvalue = 87

[[record]]
compound = "CCCCCNC(=N)N/N=C/c1c[nH]c2ccc(OC)cc12.O=C(O)/C=C\\C(=O)O [TEGASEROD MALEATE]"
measuredmetric = "Population Mitotic Cells (%)"
unitssymbol = "%"
assayvalue = 80

[[record]]
compound = "CN(c1cc(C(F)(F)F)nc(OCCC(=O)O)n1)c1cccc2c1CCC2"
measuredmetric = "Population Mitotic Cells (%)"
unitssymbol = "%"
assayvalue = 100

[[record]]
compound = "CCCc1cc(C)[nH]c(=O)c1CNC(=O)c1cc(-c2ccc(N3CCN(C(C)C)CC3)nc2)cc2c1cnn2C(C)C"
measuredmetric = "Population Mitotic Cells (%)"
unitssymbol = "%"
assayvalue = 80

[[record]]
compound = "Cc1ccc(S(=O)(=O)NC2c3ccccc3Oc3ccccc32)cc1"
measuredmetric = "Population Mitotic Cells (%)"
unitssymbol = "%"
assayvalue = 100

[[record]]
compound = "CCCCN(CC)c1nc(C)nc2c1c(C)cn2-c1c(C)cc(C)cc1C.Cl"
measuredmetric = "Population Mitotic Cells (%)"
unitssymbol = "%"
assayvalue = 44

[[record]]
compound = "Oc1cccc(-c2nc(N3CCOCC3)c3oc4ncccc4c3n2)c1 [PI-103]"
measuredmetric = "Population Mitotic Cells (%)"
unitssymbol = "%"
assayvalue = 52


Attention now shifts to the item below.
Ask: Consider the compound Cl.NC[C@@H]1O[C@H](C23CC4CC(CC(C4)C2)C3)Cc2c1ccc(O)c2O and give its measured Population Mitotic Cells (%).
Reply: 100

###

Test system: Fibroblast
measurementProtocol: Multiplex assay against human fibroblast
Type: toxicity, cell-based
experimentalContext: 24 h, 1 µM, compound concentration 1 uM, replicate 1
measuredMetric: Total Cell Count
When you answer, write just the number.

Look over these answered cases.
[[record]]
molecule = "CCCCCNC(=N)N/N=C/c1c[nH]c2ccc(OC)cc12.O=C(O)/C=C\\C(=O)O [TEGASEROD MALEATE]"
assayvalue = 100

[[record]]
molecule = "NC(=O)c1ccc2nc(-c3ccc(C4(N)CCC4)cc3)c(-c3ccccc3)n2n1"
assayvalue = 564

[[record]]
molecule = "CC(C)c1cc(Nc2nc(N3CCC[C@H](N)C3)ncc2C(N)=O)cc(C(C)C)n1"
assayvalue = 143


Now for the molecule whose Total Cell Count we want.
Ask: Fill in: Total Cell Count of Cc1c(Nc2ccc(S(=O)(=O)N3CCN(C)CC3)cc2F)nc2ccc(-c3cnn(C4CC4)c3)cn2c1=O is ___
Reply: 230

###

System: HEK-293T
measurementProtocol: Multiplex assay against HEK293T
Assay type: toxicity, cell-based
experimentalContext: human, 24 h, 10 µM, compound concentration 10 uM, replicate 1
# class assignment by measured Population Healthy Nuclei (%): LOW = under 30%, MID = from 30% up to 50%, HIGH = 50% and over

Answered examples (2):
[[record]]
molecule = "CN1C(=O)[C@@H](NC(=O)c2cc3ccccc3[nH]2)N=C(c2ccccc2)c2ccccc21 [DEVAZEPIDE]"
labelclass = "LOW"

[[record]]
molecule = "CCOC(=O)CCNc1cc(N2CCc3ccccc3CC2)nc(-c2ccccn2)n1"
labelclass = "MID"


Ask: Which Population Healthy Nuclei (%) band matches CC[C@H](Nc1ncnc2[nH]cnc12)c1nc2cccc(F)c2c(=O)n1-c1ccccc1 [IDELALISIB] ?
Reply: HIGH

Ask: Now the molecule CC(/C=C1\SC(=S)N(CCCC(=O)Nc2ccc(C(=O)O)c(O)c2)C1=O)=C\c1ccccc1
Reply: MID

Ask: Also check CCOc1ccn(-c2ccc(F)cc2)c(=O)c1C(=O)Nc1ccc(Oc2ccnc(N)c2Cl)c(F)c1 [BMS-777607]
Reply: HIGH

Ask: Cc1ccc(S(=O)(=O)NC2c3ccccc3Oc3ccccc32)cc1 ?
Reply: HIGH

Ask: Further, for Cc1c(P(=S)(c2ccccc2)c2ccccc2)n2ccccc2[n+]1C/C=C/c1ccccc1.[Br-] ?
Reply: LOW

###

Collected Population Mitotic Cells (%) values appear next to each entry.
Test system: U2OS
measurementProtocol: Multiplex assay against U2OS
Assay type: toxicity, cell-based
experimentalContext: human, 48 h, 10 µM, compound concentration 10 uM, replicate 1
Dear colleague, please return just the value in %, with no unit written.

# annotated cases, reported Population Mitotic Cells (%) shown
[[record]]
molecule = "CN(c1cc(C(F)(F)F)nc(OCCC(=O)O)n1)c1cccc2c1CCC2"
assayvalue = 50

[[record]]
molecule = "CC(/C=C1\\SC(=S)N(CCCC(=O)Nc2ccc(C(=O)O)c(O)c2)C1=O)=C\\c1ccccc1"
assayvalue = 68

[[record]]
molecule = "CN1C(=O)[C@@H](NC(=O)c2cc3ccccc3[nH]2)N=C(c2ccccc2)c2ccccc21 [DEVAZEPIDE]"
assayvalue = 10


Ask: Dear colleague, I am looking for the recorded Population Mitotic Cells (%) of the following molecule: C[C@@H](Oc1cc(-n2cnc3ccc(CN4CCN(C)CC4)cc32)sc1C(N)=O)c1ccccc1C(F)(F)F
Reply: 1

Ask: Can you check Cc1ccc(S(=O)(=O)NC2c3ccccc3Oc3ccccc32)cc1 next?
Reply: 55

Ask: Okay, and CN1CCN(Cc2ccc(-c3cnc4[nH]cc(-c5ccc6[nH]ccc6c5)c4c3)cc2)CC1 ?
Reply: 0

Ask: Cool, now CCCc1cc(C)[nH]c(=O)c1CNC(=O)c1cc(-c2ccc(N3CCN(C(C)C)CC3)nc2)cc2c1cnn2C(C)C
Reply: 4

Ask: Now this one: Cc1c(Nc2ccc(S(=O)(=O)N3CCN(C)CC3)cc2F)nc2ccc(-c3cnn(C4CC4)c3)cn2c1=O
Reply: 56

###

Each entry below lists one item and its recorded Population Mitotic Cells (%) value.
System: HEK-293T
measurementProtocol: Multiplex assay against HEK293T
Type: toxicity, cell-based
experimentalContext: human, 12 h, 1 µM, compound concentration 1 uM, replicate 1
Quick reminder: number only, in %, skip the unit.

[[record]]
molsmiles = "Cc1c(Nc2ccc(S(=O)(=O)N3CCN(C)CC3)cc2F)nc2ccc(-c3cnn(C4CC4)c3)cn2c1=O"
assayvalue = 80

[[record]]
molsmiles = "Cl.NC[C@@H]1O[C@H](C23CC4CC(CC(C4)C2)C3)Cc2c1ccc(O)c2O"
assayvalue = 65

[[record]]
molsmiles = "Oc1cccc(-c2nc(N3CCOCC3)c3oc4ncccc4c3n2)c1"
assayvalue = 41


Turning now to a further molecule:
Ask: Given the molecule c1ccc(-c2oc3ncnc(NC[C@@H]4CCCO4)c3c2-c2ccccc2)cc1 , what is its reported Population Mitotic Cells (%)?
Reply: 79

###

# Growth Rate per record follows
Tested on: Fibroblast
measurementProtocol: Incucyte cell viability with human fibroblast; further: filed as whole numbers so only -1 and 0 and 1 occur
Assay type: toxicity, cell-based
experimentalContext: 24 h, 10 µM, compound concentration 10 uM, replicate number 1, timepoint 24 hours
Hey, just send me the number, nothing else.

// known answers, use as guide
[[record]]
molecule = "COc1cc(C)c(Sc2cnc(NC(=O)c3ccc(CNC(C)C(C)(C)C)cc3)s2)cc1C(=O)N1CCN(C(C)=O)CC1 (centres undefined)"
measuredmetric = "Growth Rate"
assayvalue = 0

[[record]]
molecule = "COc1ccc(Br)cc1S(=O)(=O)NC(=O)/C=C/c1ccccc1Cc1ccc2ccccc2c1"
measuredmetric = "Growth Rate"
assayvalue = 0

[[record]]
molecule = "N#CCNC(=O)c1ccc(-c2ccnc(Nc3ccc(N4CCOCC4)cc3)n2)cc1"
measuredmetric = "Growth Rate"
assayvalue = 1


Ask: So what does the record say about Growth Rate for CCN(CCO)CCCOc1ccc2c(Nc3cc(CC(=O)Nc4cccc(F)c4)[nH]n3)ncnc2c1 ?
Reply: 0

###

Tested on: U2OS
measurementProtocol: Multiplex assay against U2OS
Assay type: toxicity, cell-based
experimentalContext: human, 12 h, 1 µM, compound concentration 1 uM, replicate 1
Listing of entries alongside the reported Population Tubulin-Different-Phenotype (%).
Quick note: give the figure in %, leave out the unit.

Ask: Please give the measured Population Tubulin-Different-Phenotype (%) for this molecule: Oc1cccc(-c2nc(N3CCOCC3)c3oc4ncccc4c3n2)c1
Reply: 14

Ask: Repeat for the following molecule: CC(/C=C1\SC(=S)N(CCCC(=O)Nc2ccc(C(=O)O)c(O)c2)C1=O)=C\c1ccccc1
Reply: 13

Ask: Try this molecule next: Cc1c(Nc2ccc(S(=O)(=O)N3CCN(C)CC3)cc2F)nc2ccc(-c3cnn(C4CC4)c3)cn2c1=O
Reply: 18

Ask: How about this molecule: Cc1c(P(=S)(c2ccccc2)c2ccccc2)n2ccccc2[n+]1C/C=C/c1ccccc1.[Br-]
Reply: 26

Ask: Query CCOC(=O)CCNc1cc(N2CCc3ccccc3CC2)nc(-c2ccccn2)n1 next
Reply: 30

Ask: Now the same for N#CCNC(=O)c1ccc(-c2ccnc(Nc3ccc(N4CCOCC4)cc3)n2)cc1
Reply: 18
